Entries and their pIC50 values follow.
molecular target: Amine oxidase [flavin-containing] B (Homo sapiens, UniProt P27338); assay: SSAO Activity Assay: Amine oxidase activity of recombinant hSSAO, hMAO-A, and hMAO-B isoforms are measured using the MAO-Glo assay kit (Promega, V1402). Ten nL test compounds (with DMSO as vehicle, 0.1% v/v for hSSAO, hMAO-A and hMAO-B) were added into assay plates by Echo, and pre-incubated with 5 μL of enzyme for 30 mins at room temperature before the addition of 5 μL of luminogenic substrate. The substrate concentration is 40 μM for human recombinant SSAO, 40 μM for human recombinant MAO-A, and 4 μM for human recombinant MAO-B. The hSSAO and hMAO-A assays were conducted in the MAO-A reaction buffer in the kit, and the MAO-B assay was conducted in the MAO-B reaction buffer. Oxidation of the substrate was conducted for 1 hr, before the addition of detecting reagent according the manufacture's protocol. The IC50 value of the tested compounds was calculated by fitting the dose response curve using a 4-parameter non-linear regression routine.
pIC50: −log10 of the molar value.

**Query** Recall the recorded pIC50 for NC/C(=C\F)COc1ccc(S(=O)(=O)CC2CCOCC2)c(Cl)c1 with Amine oxidase [flavin-containing] B (Homo sapiens, UniProt P27338) and state it.
**Result** > 5.00

**Query** Cool, now C[C@@H](CN1CCOCC1)CS(=O)(=O)c1ccc(OC/C(=C/F)CN)cc1
**Result** < 4.52

**Query** Likewise for N#CC1(CS(=O)(=O)c2ccc(OC/C(=C/F)CN)cc2)CCOCC1 ?
**Result** > 5.00

**Query** How about NC/C(=C\F)COc1ccc(S(=O)(=O)Cc2cnc(N3CCCC3)nc2)cc1 ?
**Result** > 5.00

----------
Target: Amine oxidase [flavin-containing] B (Homo sapiens, UniProt P27338)
Sequence (P27338 whole entry): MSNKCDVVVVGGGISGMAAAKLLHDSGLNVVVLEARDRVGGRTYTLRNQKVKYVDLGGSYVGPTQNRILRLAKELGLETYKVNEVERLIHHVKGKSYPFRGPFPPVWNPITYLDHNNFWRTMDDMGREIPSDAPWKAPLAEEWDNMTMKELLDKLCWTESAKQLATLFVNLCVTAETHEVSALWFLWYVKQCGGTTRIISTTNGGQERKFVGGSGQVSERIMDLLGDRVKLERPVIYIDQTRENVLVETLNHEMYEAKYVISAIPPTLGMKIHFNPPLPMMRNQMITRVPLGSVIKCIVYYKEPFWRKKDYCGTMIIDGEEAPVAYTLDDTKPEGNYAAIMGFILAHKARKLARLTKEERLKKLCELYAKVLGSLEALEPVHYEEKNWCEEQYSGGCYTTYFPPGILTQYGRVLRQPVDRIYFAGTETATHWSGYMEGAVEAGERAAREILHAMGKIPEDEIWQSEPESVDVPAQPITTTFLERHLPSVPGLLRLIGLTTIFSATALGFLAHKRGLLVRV
Assay: SSAO Activity Assay: Amine oxidase activity of recombinant hSSAO, hMAO-A, and hMAO-B isoforms are measured using the MAO-Glo assay kit (Promega, V1402). Ten nL test compounds (with DMSO as vehicle, 0.1% v/v for hSSAO, hMAO-A and hMAO-B) were added into assay plates by Echo, and pre-incubated with 5 μL of enzyme for 30 mins at room temperature before the addition of 5 μL of luminogenic substrate. The substrate concentration is 40 μM for human recombinant SSAO, 40 μM for human recombinant MAO-A, and 4 μM for human recombinant MAO-B. The hSSAO and hMAO-A assays were conducted in the MAO-A reaction buffer in the kit, and the MAO-B assay was conducted in the MAO-B reaction buffer. Oxidation of the substrate was conducted for 1 hr, before the addition of detecting reagent according the manufacture's protocol. The IC50 value of the tested compounds was calculated by fitting the dose response curve using a 4-parameter non-linear regression routine.
measurement-type: IC50

[
  {
    "compound": "NC/C(=C\\F)COc1ccc(S(=O)(=O)CC2(O)CCOCC2)cc1",
    "IC50": "< 10 µM"
  },
  {
    "compound": "CC(C)n1nc(CS(=O)(=O)c2ccc(OC/C(=C/F)CN)cc2)ccc1=O",
    "IC50": "< 10 µM"
  },
  {
    "compound": "CC1(C)COC(CS(=O)(=O)c2ccc(OC/C(=C/F)CN)cc2)CO1 (stereo unspecified)",
    "IC50": "< 10 µM"
  },
  {
    "compound": "CO[C@H]1CC[C@H](CS(=O)(=O)c2ccc(OC/C(=C/F)CN)cc2)CC1",
    "IC50": "< 10 µM"
  },
  {
    "compound": "COCC(COC)CS(=O)(=O)c1ccc(OC/C(=C/F)CN)cc1",
    "IC50": "< 10 µM"
  },
  {
    "compound": "CC(C)n1ccc(CS(=O)(=O)c2ccc(OC/C(=C/F)CN)cc2)cc1=O",
    "IC50": "< 10 µM"
  }
]

**Query** Reported IC50 for CO[C@H]1CC[C@@H](CS(=O)(=O)c2ccc(OC/C(=C/F)CN)cc2)CC1 : what is it?
**Result** 10 to 30 µM

**Query** Now consider CC(C)(C)C(=O)N1CCN(CS(=O)(=O)c2ccc(OC/C(=C/F)CN)cc2)C(=O)C1 and answer again.
**Result** < 10 µM

**Query** Then what about the compound CC1(CS(=O)(=O)c2ccc(OC/C(=C/F)CN)cc2F)CCOCC1 ?
**Result** < 10 µM

**Query** Try this compound too: C[C@@H](CN1CCC2(CCCC2)C1=O)CS(=O)(=O)c1ccc(OC/C(=C/F)CN)cc1
**Result** < 10 µM

**Query** Then NC/C(=C\F)COc1ccc(S(=O)(=O)CC23CCC(C(=O)N4CCC(F)(F)CC4)(CC2)CC3)cc1 ?
**Result** > 30 µM

**Query** Also, NC/C(=C\F)COc1ccc(S(=O)(=O)CC23CCC(C(=O)O)(CC2)CC3)cc1 please.
**Result** > 30 µM

**Query** Cool, now CCN(CC(C)CS(=O)(=O)c1ccc(OC/C(=C/F)CN)cc1)C(=O)C(C)C (stereo unspecified)
**Result** > 30 µM

**Query** Field entry: CC(C)(CN1CCOCC1)CS(=O)(=O)c1ccc(OC/C(=C/F)CN)cc1
**Result** > 30 µM

**Query** Next entry: CC(C)C(=O)N1CCC(C)(CS(=O)(=O)c2ccc(OC/C(=C/F)CN)cc2)CC1
**Result** > 30 µM

**Query** Same read-out for C[C@H](CN1CCCC1=O)CS(=O)(=O)c1ccc(OC/C(=C/F)CN)cc1 ?
**Result** > 30 µM

Data provenance: ChEMBL document CHEMBL5729376
